TEST SUMMARY: Bortezomib plasma pharmacokinetics, day 8 cycle 1, three-compartment model
Type: in vivo, human (pediatric patients)
REPORTED CONDITIONS: human, plasma, iv, 1.3 mg/m2
MEASURED PARAMETER: AUC(0-t) (ng·h/mL)
Expressed in ng·h/mL, but write only the number.

Request: In one line, give reported AUC(0-t) of the entry "CC(C)C[C@H](NC(=O)[C@H](Cc1ccccc1)NC(=O)c1cnccn1)B(O)O" .
Result: 82

* * *

TEST SUMMARY: Bortezomib plasma pharmacokinetics, day 8 cycle 1, three-compartment model
Type: in vivo, human (pediatric patients)
REPORTED CONDITIONS: human, plasma, iv, 1.3 mg/m2
MEASURED PARAMETER: AUC(0-inf) (ng·h/mL)
Expressed in ng·h/mL, but write only the number.

Request: In one line, give reported AUC(0-inf) of the entry "CC(C)C[C@H](NC(=O)[C@H](Cc1ccccc1)NC(=O)c1cnccn1)B(O)O" .
Result: 485
